System: Fer (mouse)
method_notes: phosphorylation enrichment, bacterial display (enrichment ratio); higher = better substrate or ligand; peptides without Tyr show the background;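 note: 11-residue human phosphosite peptides and single-mutation variants displayed on the E. coli surface, counted by deep sequencing, each peptide's frequency after selection divided by its frequency in the unselected input library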;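 note: frequency after pTyr selection over input frequency; kinase dosed for 20-30% of maximal phosphorylation in three min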
Binary classification by phosphorylation enrichment, with 0.5 as an inclusive lower bound for criterion met; all other cases are criterion not met.

Prompt line: hey, is phosphorylation enrichment for this one >= 0.5? GHNNVYISEHV [GRIN2A_Y1423_D1421N]
Response line: criterion not met

Prompt line: Reported phosphorylation enrichment at or above 0.5? LAETSYVIVLE [MAGEA1_Y276_K278I]
Response line: criterion met

Prompt line: Assess whether reported phosphorylation enrichment for LKDEDYLKDTV [HAUS3_Y582_I586T] sits at 0.5 or higher.
Response line: criterion met

Prompt line: Reported phosphorylation enrichment at or above 0.5? TPTYPYLLPKS [PLD2_Y580]
Response line: criterion not met

Prompt line: Does the reported phosphorylation enrichment for EEGRVYVFRLS [ITGAE_Y549_YF] fall at or above the 0.5 mark?
Response line: criterion met

====

Test system: c-Abl (mouse)
method_notes: phosphorylation enrichment, bacterial display (enrichment ratio); higher = better substrate or ligand; peptides without Tyr show the background
Decision: phosphorylation enrichment compared against 0.7; not below it gives Yes, below it gives No.

Prompt line: Check if phosphorylation enrichment >= 0.7 (inclusive). Item: RSAGKYDVFFI [MECP2_Y120_L124F_YF]
Response line: Yes

Prompt line: Could you tell me if the measured phosphorylation enrichment of RCNHPYLINGA [CHD7_Y1256_C1251R] reaches 0.7 or more?
Response line: No

Prompt line: Does the sequence EFGFRYELVQY [UGGT2_Y1289_Y1285F] have recorded phosphorylation enrichment that is 0.7 or more?
Response line: No

Prompt line: Answer whether phosphorylation enrichment of ESVNTYLQTSP [NAT1_Y208_M205V] is greater than or equal to 0.7.
Response line: No

Prompt line: Hello, I need to know if NYSKMYCNPDA [KNL1_Y489_A486S] has measured phosphorylation enrichment not below 0.7. Thanks!
Response line: No

Prompt line: Does phosphorylation enrichment meet or surpass 0.7 for ISTAGYSFPEL [EDAR_Y406_I408F] ?
Response line: Yes

Prompt line: For this sequence, is measured phosphorylation enrichment 0.7 or higher? SSFDTYHLSRE [KIR3DL2_Y253_I252T_YF]
Response line: No

Prompt line: Is phosphorylation enrichment for SGPRRYTIATL [TTR_Y125_A129T] at or above 0.7?
Response line: No

Prompt line: Is phosphorylation enrichment at least 0.7? Consider QDGYSYLSRQM [LDLR_Y847_P848L]
Response line: No

Prompt line: Decide: phosphorylation enrichment of AEVDTYCRHNY [HLA-DRB1_Y107_A103E] >= 0.7?
Response line: No

Prompt line: Dear colleague, could you confirm whether SNKLHYQLEQE [PDPR_Y110_Y109H] has phosphorylation enrichment at or above 0.7?
Response line: No

Prompt line: Kindly determine if phosphorylation enrichment recorded for ISIFHYAKGQP [MPZ_Y82] is above or exactly 0.7.
Response line: No

Prompt line: Does the reported phosphorylation enrichment for QPDLLYDHIQP [TRRAP_Y862_F860L] fall at or above the 0.7 mark?
Response line: Yes

Prompt line: Determine whether this sequence has phosphorylation enrichment no lower than 0.7: IVAREYFSEAD [CAMK2A_Y106_YF]
Response line: Yes

Prompt line: Tell me whether phosphorylation enrichment is at least 0.7 here: CNSFRYGGGGG [NPPA_Y151]
Response line: No

Prompt line: Decide: is the reported value of phosphorylation enrichment for RNNTEYVRDIG [MUSK_Y577_I575T] equal to or greater than 0.7?
Response line: No

Prompt line: Does the reported phosphorylation enrichment for SHLSAFPALEG [CD5_Y465_Y465F] fall at or above the 0.7 mark?
Response line: No

Prompt line: Check if phosphorylation enrichment >= 0.7 (inclusive). Item: FKNGDYNEVMK [LCT_Y1638]
Response line: No

Prompt line: # check: phosphorylation enrichment of IKIMGYFIRTI [IDS_Y490_S491F] is greater than or equal to 0.7
Response line: Yes

Prompt line: Please tell me: is the sequence ANAYIYVVQLP [L1CAM_Y420] at or over 0.7 in terms of phosphorylation enrichment?
Response line: Yes

Prompt line: Given the entry HYEFKYVINAI [MAOA_Y268_C266F] , answer whether its phosphorylation enrichment meets or surpasses 0.7.
Response line: Yes

Prompt line: Determine whether this sequence has phosphorylation enrichment no lower than 0.7: WRPFGYPRRRR [BCS1L_Y181]
Response line: No

Prompt line: Decide: phosphorylation enrichment of DKGTLYIAEQI [PLBD1_Y375_V377A] >= 0.7?
Response line: No

Prompt line: Decide: is the reported value of phosphorylation enrichment for SHKELYKWFTS [DYNC1H1_Y3051_E3048K] equal to or greater than 0.7?
Response line: No

Prompt line: Is reported phosphorylation enrichment greater than or equal to 0.7 here: PPPPAYDDMAQ [TNK2_Y635_V638M]
Response line: No

Prompt line: Does the reported phosphorylation enrichment for GTAPSYGNPSS [CD19_Y378] fall at or above the 0.7 mark?
Response line: No

Prompt line: Say whether GSETPYMDRTP [ESS2_Y335_V336M] shows phosphorylation enrichment of 0.7 or more.
Response line: No

Prompt line: Exam item: decide whether the reported phosphorylation enrichment for EVESPYEVRDY [GIGYF2_Y1168_H1171R] is at least 0.7.
Response line: Yes
